measurement protocol: In vitro enzyme assay to detect hydrolysis of chlorophenol red-beta-D-[…] directly proportional to the number of Toxoplasma stably expressing beta-galactosidase
Type: functional, organism-based, Toxoplasma gondii
Design: scale not given: in the data most compounds retested in dose-response had high values
test parameters: 50 µM
Out of some 85,000 compounds screened, about 440 (0.52%) showed an effect of 50% or more. This excerpt belongs to a sample that is enriched for strong results.
Reported Percent Effect by item:
Your answer should be a plain number; it is taken to be in %.

>>> measured("OCC1(Cc2ccccc2F)CCCNC1 (stereo not given)")
2.008

Prompt line: Give reported Percent Effect value for CSCC(CCO)NC(=O)c1coc2ccccc12 (stereo not given)
Response line: -6.179

Prompt line: Give reported Percent Effect value for CN(C(=O)CC(N)c1ccccc1)c1cccc(F)c1 (stereo not given)
Response line: 3.1

----------
measurement protocol: In vitro enzyme assay to detect hydrolysis of chlorophenol red-beta-D-[…] directly proportional to the number of Toxoplasma stably expressing beta-galactosidase
Assay type: functional, organism-based, Toxoplasma gondii
Set-up: scale not given: in the data most compounds retested in dose-response had high values
test parameters: 50 µM
Out of some 85,000 compounds screened, about 440 (0.52%) showed an effect of 50% or more. The sample holds strong results, similar compounds and a random draw of the others, so the mix is not that of the screen.
Reported Percent Effect by item:
Your answer should be a plain number; it is taken to be in %.

Please review the following examples before continuing.
>>> measured("Cc1noc(C)c1C(=O)NC1CCN(CC2CC2)CC1")
-0.3877
>>> measured("O=C(c1ccc(Br)cn1)N1CCC(n2ccnn2)CC1")
0.6699

# next compound below
Prompt line: Give reported Percent Effect value for Cc1cnccc1NCCNC(=O)Cc1ccccn1
Response line: -14.36

----------
measurement protocol: In vitro enzyme assay to detect hydrolysis of chlorophenol red-beta-D-[…] directly proportional to the number of Toxoplasma stably expressing beta-galactosidase
Assay type: functional, organism-based, Toxoplasma gondii
Design: scale not given: in the data most compounds retested in dose-response had high values
test parameters: 10 µM
Out of some 85,000 compounds screened, about 440 (0.52%) showed an effect of 50% or more. The list comes from a sample in which strong results are over-represented; it also holds close analogues and randomly drawn compounds.
Reported Percent Effect by item:

Please review the following examples before continuing.
>>> measured("COCC(=O)N1C[C@@H](OCc2ccncc2)[C@@H]2OCCC[C@@H]21.O=C(O)C(F)(F)F")
"64.14%"
>>> measured("O=C(CN1CCCC(c2noc(C3CC3)n2)C1)N1CCCC1 (centres undefined)")
"4.609%"
>>> measured("Cl.NCCC(=O)Nc1ccc(-c2ccccc2)cc1")
"10.41%"
>>> measured("NC(=O)CN1CC(c2nc(C3CC3)no2)C1.O=C(O)C(=O)O")
"-8.991%"
>>> measured("CCN(Cc1nonc1C)C(=O)c1ccc(Br)o1")
"-1.469%"
>>> measured("COc1ccc(C(C)Nc2nc3c(C)nn(C)c3c(=O)n2C)cc1 (centres undefined)")
"18.77%"
>>> measured("Cn1cccc1C(=O)N1C[C@@H](OCc2cccnc2)[C@H]2OCCC[C@H]21")
"1.724%"
>>> measured("c1ccc(-c2ncn(CCCN3CCOCC3)c2-c2ccncc2)cc1")
"36.16%"

Prompt line: Give reported Percent Effect value for COC(=O)c1ccc2c(-c3ccnc(NCCO)n3)c[nH]c2c1
Response line: 29.45%

----------
measurement protocol: In vitro enzyme assay to detect hydrolysis of chlorophenol red-beta-D-[…] directly proportional to the number of Toxoplasma stably expressing beta-galactosidase
Type: functional, organism-based, Toxoplasma gondii
Design: scale not given: in the data most compounds retested in dose-response had high values
test parameters: 10 µM
Out of some 85,000 compounds screened, about 440 (0.52%) showed an effect of 50% or more. This excerpt belongs to a sample that is enriched for strong results.
test readout: Percent Effect (%)
Your answer should be a plain number; it is taken to be in %.

Prompt line: Give reported Percent Effect value for CN(Cc1ccccc1)C1(C(=O)NC(C)(C)CO)Cc2ccccc2C1
Response line: -3.718

Prompt line: Give reported Percent Effect value for COC(=O)c1ccc(NS(=O)(=O)c2cnc(NC(C)=O)s2)cc1
Response line: 53.94

Prompt line: Give reported Percent Effect value for Cn1cc(N2CC3(COCCN(Cc4nccs4)C3)OCC2=O)cn1.O=C(O)C(F)(F)F (stereo unspecified)
Response line: 3.864

Prompt line: Give reported Percent Effect value for COc1ccc(CS(=O)(=O)CC(=O)NCC2CC2)cc1F
Response line: 4.977

Prompt line: Give reported Percent Effect value for O=C(Nc1nc2c(s1)CN(C(=O)NCc1cccs1)CC2)C1CC1
Response line: 2.193

Prompt line: Give reported Percent Effect value for CN1CCN(Cc2c(-c3ccco3)[nH]c3ncccc23)CC1
Response line: 84.72

----------
Reported Percent Effect by item:
measurement protocol: In vitro enzyme assay to detect hydrolysis of chlorophenol red-beta-D-[…] directly proportional to the number of Toxoplasma stably expressing beta-galactosidase
Assay type: functional, organism-based, Toxoplasma gondii
Set-up: scale not given: in the data most compounds retested in dose-response had high values
test parameters: 50 µM
The campaign covered roughly 85,000 compounds. About 440 (0.52%) showed an effect of 50% or more. This excerpt belongs to a sample that is enriched for strong results.
Your answer should be a plain number; it is taken to be in %.

>>> measured("CCc1nccn1CCCNC(=O)Cc1nonc1C")
3.782

Prompt line: Give reported Percent Effect value for NC(=O)c1ccc(OCC(=O)c2ccccc2F)cc1
Response line: -5.248

----------
measurement protocol: In vitro enzyme assay to detect hydrolysis of chlorophenol red-beta-D-[…] directly proportional to the number of Toxoplasma stably expressing beta-galactosidase
Type: functional, organism-based, Toxoplasma gondii
Design: scale not given: in the data most compounds retested in dose-response had high values
test parameters: 50 µM
In all, about 85,000 compounds went through this assay and about 440 (0.52%) showed an effect of 50% or more. The full list was thinned out, with strong results kept by preference.
test readout: Percent Effect (%)
Your answer should be a plain number; it is taken to be in %.

>>> measured("CC(=O)Nc1ccc(CN2CCCOC(C)C2)cc1 (stereo not drawn)")
52.96
>>> measured("CNC(=O)NC(=O)CCN1CCCC(C(F)(F)F)C1 (stereo not drawn)")
-7.84

# next compound below
Prompt line: Give reported Percent Effect value for CC(N)c1ccc(N2CCCCC2=O)cc1 (stereo not drawn)
Response line: 3.622

----------
measurement protocol: In vitro enzyme assay to detect hydrolysis of chlorophenol red-beta-D-[…] directly proportional to the number of Toxoplasma stably expressing beta-galactosidase
Format: functional, organism-based, Toxoplasma gondii
Design: scale not given: in the data most compounds retested in dose-response had high values
test parameters: 10 µM
The whole screen tested about 85,000 compounds, of which about 440 (0.52%) showed an effect of 50% or more. The sample holds strong results, similar compounds and a random draw of the others, so the mix is not that of the screen.
Decide using Percent Effect alone. Strictly below 10%: true. Equal to or above 10%: false.

>>> cat("CCCc1nc(N2CCCCCC2)c2c(n1)c(C)nn2CC")
"false"
>>> cat("CCc1cc(=O)[nH]c(-n2nc(C3CC3)cc2NC(=O)C2CC2)n1")
"false"
>>> cat("CCn1nc(C)c2nnn(CC(=O)Nc3cccc(F)c3)c(=O)c21")
"true"
>>> cat("Cc1cc(NCCO)nc(N2CCN(C)CC2)c1C#N")
"true"

Prompt line: Answer whether the compound Cc1cc(C(=O)NCc2cccn2C)nn1C has Percent Effect strictly less than 10%
Response line: true

Prompt line: Answer whether the compound COC[C@@H]1CCC[C@@]12CN(Cc1ccc(C)s1)CCO2.O=C(O)C(F)(F)F has Percent Effect strictly less than 10%
Response line: false

Prompt line: Answer whether the compound COc1cccc(NC(=O)Nc2ccc3c(c2)CC(=O)N3)c1 has Percent Effect strictly less than 10%
Response line: false

----------
measurement protocol: In vitro enzyme assay to detect hydrolysis of chlorophenol red-beta-D-[…] directly proportional to the number of Toxoplasma stably expressing beta-galactosidase
Type: functional, organism-based, Toxoplasma gondii
Parameters: scale not given: in the data most compounds retested in dose-response had high values
test parameters: 10 µM
Hit rate of the full screen: of about 85,000 compounds, about 440 (0.52%) showed an effect of 50% or more. The sample as a whole holds a higher share of strong results than the screen did.
test readout: Percent Effect
Output should be the measured figure followed by the unit it is expressed in.

Please review the following examples before continuing.
>>> measured("Cc1ccc(CN(CCCn2ccnc2)Cc2cccs2)s1.O=C(O)CC(O)(CC(=O)O)C(=O)O")
"13.55%"
>>> measured("OCCNc1nccc(-c2c[nH]nc2-c2ccco2)n1")
"54.25%"
>>> measured("O=C(O)C(F)(F)F.O=C1COC2(CCN(S(=O)(=O)C3CC3)CC2)CN1c1cccnc1")
"59.25%"

Prompt line: Give reported Percent Effect value for OCCNc1nccc(-c2c[nH]nc2-c2ccncc2)n1
Response line: -1.451%
